These data points were gathered from patent US20250206818A1.

Target: T1, human LAG-3 expressed on cells (human, UniProt P18627 23-525)
T1 construct: whole, on cells; also called CD223
T1 sequence (looked up): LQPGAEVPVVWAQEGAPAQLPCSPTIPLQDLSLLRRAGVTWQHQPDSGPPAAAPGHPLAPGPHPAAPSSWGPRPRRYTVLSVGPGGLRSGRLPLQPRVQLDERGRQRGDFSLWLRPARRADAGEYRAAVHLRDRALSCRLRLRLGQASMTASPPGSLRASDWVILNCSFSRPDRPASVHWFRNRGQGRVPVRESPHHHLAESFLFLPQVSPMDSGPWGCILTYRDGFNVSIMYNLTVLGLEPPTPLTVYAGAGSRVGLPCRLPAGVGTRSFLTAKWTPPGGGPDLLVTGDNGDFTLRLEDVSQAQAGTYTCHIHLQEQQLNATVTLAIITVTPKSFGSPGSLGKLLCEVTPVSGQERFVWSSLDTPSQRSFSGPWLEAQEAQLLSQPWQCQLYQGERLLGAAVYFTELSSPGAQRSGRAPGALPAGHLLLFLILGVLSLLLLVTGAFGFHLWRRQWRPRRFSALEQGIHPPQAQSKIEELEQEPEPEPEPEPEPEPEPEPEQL
Test: flow cytometry, Fab periplasmic extract on Jurkat cells expressing human LAG-3 (FIGS. 1A-1C)
readout type: binding result

Please review the following examples before continuing.
binder P14F01 Fab (Fab, V domains shown, Murine Fab, periplasmic extract) VH: QVQLQQSGAELVKPGASVELSCTASGFNIRDTYMYWVKQRPEQGLEWIGRIDPANGNTKFDPKFQDRATMTADTSSNTAYLQLSSLTSEDTAVYYCTTYFYRYDVGGFDYWGQGTTLTVS VL: ENVLTQSPALMAASPGEKVTITCSVSSSISSSNLHWYQQKSGTSPKLWIYGTSNLASGVPVRFSGSGSGTSYSLTISSMEAEDAATYYCQQWSTYPFTFGSGTKLEIK , binding result observed: binds

Short answer for P13H05 Fab (Fab, V domains shown, Murine Fab, periplasmic extract) VH: QVQLQQPGAELVKPGASVKLSCTASGFNIKDTYIHWVKQRPEQGLEWIGEIDPANDNTKYDPKFQGKATITADTSSNTAYLQLSSLTSEDTAVYYCATYYYRYDVGGFDYWGQGTTLTVS VL: ENVLTQSPALMAASPGEKVTITCSVSSSISSSNLHWFQQKSGTSPKLWIYGTSNLASGVPVRFSGSGSGTSYSLTISSMEAEDAATYYCQQWSSYPFTFGSGTKLEIK : binding result was binds

The reported value for P13B11 Fab (Fab, V domains shown, Murine Fab, periplasmic extract) VH: QVQLQQPGAELVKPGASVKLSCTASGFNIKDNYMDWVKQRPEQGLEWIGKIDPANGNTKYDPKFQGKATITADTSSNTAYLQLSSLTSEDTAVYYCATYYYRYDVGGFDYWGQGTTLTVS VL: QIVLTQSPALMAASPGEKVTITCSVSSSISSSNLHWFQQKSGTSPKLWIYGTSNLASGVPVRFSGSGSGTSYSLTISSMEAEDAATYYCQQWSSYPFTFGSGTKLEIK in terms of binding result is binds

The reported value for P13B02 Fab (Fab, V domains shown, Murine Fab, periplasmic extract) VH: QVQMKQSGAELVKPGASVKLSCTASGFNIKDTYIHWVKQRPEQGLEWIGEIDPANDNTKYDPKFQGKATITADTSSNTAYLQLSSLTSEDTAVYYCATYYYRYDVGGFDYWGQGTTLTVS VL: EILLTQSPALMAASPGEKVTITCSVSSSISSSNLHWFQQKSGTSPKLWIYGTSNLASGVPVRFSGSGSGTSYSLTISSMEAEDAATYYCQQWSSYPFTFGSGTKLEIK in terms of binding result is binds

Summary for this binder, P13B03 Fab (Fab, V domains shown, Murine Fab, periplasmic extract) VH: EVQLQQSGAELVKPGASVKLSCTASGFNIKDTYIHWVKQRPEQGLEWIGEIDPANGNTKYDPKFQGKATITADTSSNTAYLQLSSLTSEDTAVYYCATYYYRYDVGGFDYWGQGTTLTVS VL: ENVLTQSPALMAASPGEKVTITCSVSSSISSSNLHWFQQKSGTSPKLWIYGTSNLASGVPVRFSGSGSGTSYSLTISSMEAEDAATYYCQQWSSYPFTFGSGTKLEIK : binding result is binds

---
Please fill in: binding result reported for P15B06 Fab (Fab, V domains shown, Murine Fab, periplasmic extract) VH: EVQLQQSGAELVKPGASVKLSCTASGFNIKDTYMYWVKQRPEQGLDWIGRIDPANGNTHFDPKFQGKATITADTSSNTAYLQLSSLTSEDTAVYYCSTYFYRYDVGGFDYWGQGTTLTVS VL: QILLTQSPALMAASPGEKVTITCSVSSSISSSNLHWYQQKSGTSPKLWIYGTSNLASGVPVRFSGSGSGTSYSLTISSMEAEDAATYYCQQWSSYPLTFGAGTKLELK = binds

Consider P13D05 Fab (Fab, V domains shown, Murine Fab, periplasmic extract) VH: QVQLQQPGAELVKPGASVELSCTASGFNIRDTYMYWVKQRPEQGLGWIGRIDPANGNTKFDPKFQDRATMTADTSSNTAYLQLSSLTSEDTAVYYCTTYFYRYDVGGFDYWGQGTTLTVS VL: EIVLTQSPALMAASPGEKVTITCSVSSSISSSNLHWFRQKSGTSPKLWIYGTSNLASGVPVRFSGSGSGTSYSLTISSMEAEDAATYYCQQWSSYPFTFGSGTKLEIK . Its measured binding result is binds
